biological target: Human immunodeficiency virus type 1 protease (Human immunodeficiency virus 1); experiment: Inhibitory activity against HIV-1 protease
Below is a list of entries, each paired with its recorded pKi value.
// scale note: pKi = -log10(conc_M); give the bare number

- smiles: "NNC(=O)c1cccc(CN2C(=O)N(Cc3cccc(C(=O)NN)c3)[C@H](Cc3ccccc3)[C@H](O)[C@@H](O)[C@H]2Cc2ccccc2)c1"
  pKi: 10.74
- smiles: "O=C(Nc1ccccc1)c1cccc(CN2C(=O)N(Cc3cccc(C(=O)Nc4ccccc4)c3)[C@H](Cc3ccccc3)[C@H](O)[C@@H](O)[C@H]2Cc2ccccc2)c1"
  pKi: 9.37
- smiles: "Cc1ccnc(NC(=O)c2cccc(CN3C(=O)N(Cc4cccc(C(=O)Nc5nccc(C)n5)c4)[C@H](Cc4ccccc4)[C@H](O)[C@@H](O)[C@H]3Cc3ccccc3)c2)n1"
  pKi: 9.94

Task: Quick one: pKi for Cc1cnc(NC(=O)c2cccc(CN3C(=O)N(Cc4cccc(C(=O)Nc5ncc(C)s5)c4)[C@H](Cc4ccccc4)[C@H](O)[C@@H](O)[C@H]3Cc3ccccc3)c2)s1 ?
Result: 10.85

Task: Quick one: pKi for CC(C)NC(=O)c1cccc(CN2C(=O)N(Cc3cccc(C(=O)NC(C)C)c3)[C@H](Cc3ccccc3)[C@H](O)[C@@H](O)[C@H]2Cc2ccccc2)c1 ?
Result: 9.24
